Reported values of half-life for individual entries
test: physchem; format: physicochemical; conditions: aqueous phosphate buffer, pH 7.4
Use h as the unit, but write only the number.

smiles_notation: C[C@]12C=CC(=O)C=C1CC[C@@H]1[C@@H]2[C@@H](O)C[C@@]2(C)[C@H]1CC[C@]2(OC(=O)C(Cl)Cl)C(=O)OCCl
experimental_value: 0.232
--
smiles_notation: COC(=O)[C@@]1(OC(=O)C(Cl)Cl)CC[C@H]2[C@@H]3CCC4=CC(=O)C=C[C@]4(C)[C@H]3[C@@H](O)C[C@@]21C
experimental_value: 3.37
--
smiles_notation: CC(C)OC(=O)[C@@]1(OC(=O)C(Cl)Cl)CC[C@H]2[C@@H]3CCC4=CC(=O)C=C[C@]4(C)[C@H]3[C@@H](O)C[C@@]21C
experimental_value: 16.2

# get_value(readout='half-life', item= `CCOC(=O)[C@@]1(OC(=O)C(Cl)Cl)CC[C@H]2[C@@H]3CCC4=CC(=O)C=C[C@]4(C)[C@H]3[C@@H](O)C[C@@]21C` )
5.08

----------
Reported values of half-life for individual entries
experiment: physchem; format: physicochemical; conditions: aqueous phosphate buffer, pH 9
Use min as the unit, but write only the number.

smiles_notation: COC(=O)[C@@]1(OC(=O)C(Cl)Cl)CC[C@H]2[C@@H]3CCC4=CC(=O)C=C[C@]4(C)[C@H]3[C@@H](O)C[C@@]21C
half-life / min: 4.25

smiles_notation: CC(C)OC(=O)[C@@]1(OC(=O)C(Cl)Cl)CC[C@H]2[C@@H]3CCC4=CC(=O)C=C[C@]4(C)[C@H]3[C@@H](O)C[C@@]21C
half-life / min: 16.2

smiles_notation: CCOC(=O)[C@@]1(OC(=O)C(Cl)Cl)CC[C@H]2[C@@H]3CCC4=CC(=O)C=C[C@]4(C)[C@H]3[C@@H](O)C[C@@]21C
half-life / min: 8.67

# get_value(readout='half-life', item= `C[C@]12C=CC(=O)C=C1CC[C@@H]1[C@@H]2[C@@H](O)C[C@@]2(C)[C@H]1CC[C@]2(OC(=O)C(Cl)Cl)C(=O)OCCl` )
1.07

----------
biological target: rat lung glucocorticoid receptor (Rattus norvegicus, UniProt P06536); construct: Immediately after resection of the lungs, the tissue was frozen in ice; The cytosol was prepared; from tissue; host or cells: lung cytosol of adrenalectomized male Sprague-Dawley rats; assay: Receptor binding studies ([3H]triamcinolone acetonide displacement); details: further receptor binding studies (Table X); dexamethasone = 100; * mean ± SE of 3-5 results
Sequence (P06536 whole entry): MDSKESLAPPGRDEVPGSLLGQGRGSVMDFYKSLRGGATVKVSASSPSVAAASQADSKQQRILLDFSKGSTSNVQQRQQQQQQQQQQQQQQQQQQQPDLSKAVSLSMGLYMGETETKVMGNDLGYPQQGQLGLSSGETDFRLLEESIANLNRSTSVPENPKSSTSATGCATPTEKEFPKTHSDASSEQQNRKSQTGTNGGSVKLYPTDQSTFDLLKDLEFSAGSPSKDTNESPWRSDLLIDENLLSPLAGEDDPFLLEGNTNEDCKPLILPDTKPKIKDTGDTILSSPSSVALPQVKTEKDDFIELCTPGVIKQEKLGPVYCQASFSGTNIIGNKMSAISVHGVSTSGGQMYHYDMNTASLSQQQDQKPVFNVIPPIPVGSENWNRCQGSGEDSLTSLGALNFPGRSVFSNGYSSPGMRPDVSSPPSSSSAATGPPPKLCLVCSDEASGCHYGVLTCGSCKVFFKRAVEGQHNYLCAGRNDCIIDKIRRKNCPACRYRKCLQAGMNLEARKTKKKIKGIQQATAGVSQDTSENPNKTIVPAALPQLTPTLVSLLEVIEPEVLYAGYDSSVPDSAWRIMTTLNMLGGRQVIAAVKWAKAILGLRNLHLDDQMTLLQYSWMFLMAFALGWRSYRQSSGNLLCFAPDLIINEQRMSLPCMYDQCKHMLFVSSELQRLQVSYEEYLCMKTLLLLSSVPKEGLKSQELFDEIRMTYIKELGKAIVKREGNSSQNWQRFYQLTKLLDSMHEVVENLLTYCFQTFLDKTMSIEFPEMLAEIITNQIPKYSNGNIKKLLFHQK
Reported values of RBA for individual entries
Reply with the value as a number alone.

Some entries whose results are on file:
molecule: CC(C)OC(=O)[C@@]1(OC(=O)C(Cl)Cl)CC[C@H]2[C@@H]3CCC4=CC(=O)C=C[C@]4(C)[C@H]3[C@@H](O)C[C@@]21C [Compound C]
experimental_value: 117
//
molecule: CC1(C)O[C@@H]2C[C@H]3[C@@H]4CCC5=CC(=O)C=C[C@]5(C)[C@@]4(F)[C@@H](O)C[C@]3(C)[C@]2(C(=O)CO)O1 [Triamcinolone acetonide, reference compound]
experimental_value: 630
//
molecule: CCOC(=O)[C@@]1(OC(=O)C(C)Cl)CC[C@H]2[C@@H]3CCC4=CC(=O)C=C[C@]4(C)[C@H]3[C@@H](O)C[C@@]21C (stereo partly drawn) [Q]
experimental_value: 88
//
molecule: C[C@]12C=CC(=O)C=C1CC[C@@H]1[C@@H]2[C@@H](O)C[C@@]2(C)[C@H]1CC[C@]2(OC(=O)C(Cl)Cl)C(=O)OCCl [Compound D]
experimental_value: 684
//
molecule: COC(=O)[C@@]1(OC(=O)C(Cl)Cl)[C@H](C)C[C@H]2[C@@H]3CCC4=CC(=O)C=C[C@]4(C)[C@@]3(F)[C@@H](O)C[C@@]21C [Compound I]
experimental_value: 1745

As a next step, examine the molecule that follows.
Give RBA (rat lung glucocorticoid receptor (Rattus norvegicus, UniProt P06536)) of the following molecule: CC(=O)[C@@]1(O)CC[C@H]2[C@@H]3C[C@H](C)C4=CC(=O)C=C[C@]4(C)[C@@]3(F)[C@@H](O)C[C@@]21C [Fluorometholone, reference compound]
136
